# PROTOCOL_SUMMARY: DUSP6 inhibitors restoring Erk phosphorylation by chemical complementation, primary imaging in DUSP6-transfected HeLa (AID 609)
# APPLIED_CONDITIONS: HeLa MKP-3 transfected, phospho-Erk imaging KS statistic; measured here: nuclear pErk red intensity z-score; at 10 µM; stronger effect = higher value; cells stimulated with TPA for 15 min
ENDPOINT: z-score
Field format: numeric only.

According to the records, this compound O=c1[nH]c(=O)n(Cc2ccco2)c2c1C(C(F)(F)F)(C(F)(F)F)N=C(c1ccco1)N2 displays z-score of -0.242

Record summary for c1ccc2c(c1)NC(c1ccncc1)n1c-2nc2ccccc21 (stereo not drawn) : reported z-score = 0.784

CN(Cc1c(O)ccc2c1oc(=O)c1ccccc12)C1CCCCC1 yielded z-score of 0.214

According to the records, this compound O=S(=O)(c1ccc2ccccc2c1)N(CC(O)CN1CCOCC1)c1ccccc1 (stereo not drawn) displays z-score of -0.234

The compound listed as COc1ccc(C2C(C#N)=C(N)SC(N)=C2C#N)cc1OC has a reported z-score of -1.06

Given item COc1cccc(-c2nnc3sc(-c4ccc(Cl)cc4)nn23)c1 , the value recorded as its z-score is 0.00297

compound C=CCn1c(SCC#N)nc2c(c1=O)C(C)(C)Cc1ccccc1-2 , z-score observed: -0.925

Looking up COCCNc1cc(C)c(C#N)c2nc3ccccc3n12 , I see its z-score listed as -1.31

GET /value?item= CN(C(=O)C(Cl)Cl)c1ccc(OC(=O)c2ccco2)cc1 &field=z-score returns -0.332

// sample CCN1CCc2c(C#N)c(N3CCOCC3)nc(NCc3ccccc3)c2C1 , its z-score was 2.2

The compound identified as CC(=O)N1CC=C2C(C#N)=C(N)C(C#N)(C#N)[C@H](c3ccoc3)[C@H]2C1 registered its z-score at -2.11

Entry under test: COc1ccc(-c2cc(=O)[nH]c(=O)[nH]2)cc1 . Its z-score was 0.91

Note to self: z-score recorded for Cc1ccc(C(=O)CSC2=C(C#N)C(c3ccco3)C3=C(CCCC3=O)N2)cc1 (stereo not drawn) was 0.366

Given item COc1ccc(Nc2cc(C)nc3ccccc23)cc1 , the value recorded as its z-score is -1.53

Reported z-score for O=S(=O)(O)c1nc2ccccc2n1Cc1ccc(Cl)cc1Cl was -1.66

The recorded z-score for entry Cc1oncc1C(=O)Nc1ccc(C(F)(F)F)cc1 equals 0.25

Short answer for Nc1ccc(S(=O)(=O)Nc2ncccn2)cc1 : z-score was 1.02

Value of z-score reported for the compound CCCCCc1ccc(-c2ccc(=O)[nH]n2)cc1 is -1.03

The measured z-score associated with Cc1ccc2[nH]c3c(N4CCOCC4)ncnc3c2c1 reads 0.577

// z-score lookup, compound = CC1CN(C2CCN(S(=O)(=O)c3ccccc3)CC2)CC(C)O1 (stereo not drawn) , result: -0.713

Notebook: ClC(Br)=C(n1cnc2ccccc21)n1cnc2ccccc21 , z-score read as -1.02

For record CN(CCO)CC(O)Cn1cnc2c1c(=O)n(C)c(=O)n2C (stereo not drawn) (tested in a mixture with another compound) the listed z-score is 0.334

The compound listed as CC(C)OC(=O)C(C#N)c1nc2ccccc2nc1N1CCN(Cc2ccc3c(c2)OCO3)CC1 (stereo not drawn) has a reported z-score of -0.926

Recorded z-score (compound CCCCn1c(-c2ccc(Cl)cc2)nc2c(=O)n(C)c(=O)[nH]c21 ): 1.4

The value of z-score measured for the compound O=C(O)CCCc1ccccc1 turned out to be -0.707

According to the records, this compound CCOC(=O)N1CCN(/C=C(\C#N)c2nc3ccccc3s2)CC1 displays z-score of -0.877

Record CCc1cc2c(=O)c(-c3cscn3)coc2c(CN(C)C)c1O , field z-score: 0.878

// CCOC(=O)CSc1nc(N)c(C#N)c(-c2ccc(OC)cc2)c1C#N : z-score value = 1.28

Just so you know, measured z-score for CC(C)CN1C(=O)NC(NC(=O)c2cccnc2)(C(F)(F)F)C1=O (stereo not drawn) came out at -1.2

Reported z-score ( CN=c1sc2ccccc2n1CC(O)COc1ccccc1 (stereo not drawn) ) = 0.00223

Recorded result, Cn1c(=O)c2c(nc(OCc3cccnc3)n2Cc2ccccc2)n(C)c1=O , z-score: 0.62

COc1ccccc1OCC(O)COC(N)=O (stereo not drawn) yielded z-score of 1.17

z-score reading for CN(C)c1nc2n(c(=S)n1)CCS2 : 0.173

Record Cc1ccc(-c2nnc(-c3cccc(Br)c3)o2)cc1 , field z-score: 0.911

Per the records, this compound ( COC(=O)CC1=NC(=O)CS1 ) has z-score equal to 1.11

The reported value for COc1cc(C2C(C(=O)c3cccs3)=C(O)C(=O)N2c2cc(C)on2)ccc1O (stereo not drawn) in terms of z-score is -0.385

The compound CCOC(=O)C(CC(=O)O)N1CCCCC1 (stereo not drawn) showed z-score equal to -0.781

Per the records, this compound ( Fc1ccccc1-c1nc(NCCCN2CCOCC2)c2ccccc2n1 ) has z-score equal to -0.632

Reference source: PubChem BioAssay
